src = patent US20110306636A1

- TESTED_SYSTEM: S1P3 (Homo sapiens, UniProt Q99500)
- Sequence (Q99500 whole entry, species assumed): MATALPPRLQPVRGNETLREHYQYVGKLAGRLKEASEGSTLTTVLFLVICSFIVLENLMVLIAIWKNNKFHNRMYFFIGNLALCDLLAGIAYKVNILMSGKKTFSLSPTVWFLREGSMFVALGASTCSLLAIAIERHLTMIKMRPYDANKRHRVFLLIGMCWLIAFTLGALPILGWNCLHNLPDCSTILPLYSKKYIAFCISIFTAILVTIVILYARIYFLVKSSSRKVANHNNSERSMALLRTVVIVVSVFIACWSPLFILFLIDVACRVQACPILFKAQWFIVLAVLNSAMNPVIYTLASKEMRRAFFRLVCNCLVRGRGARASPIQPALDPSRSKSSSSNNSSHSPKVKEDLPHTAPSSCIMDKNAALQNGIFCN
- ASSAY_INFO: Receptor binding assay, [33P]sphingosine 1-phosphate competition, S1P3
- PROTOCOL_CONDITIONS: 96 well-plate; read-out: S1P3 binding IC50 (M) (96 well-plate)
- Description: Membranes Preparation: Membranes were prepared from CHO cells expressing S1P1 or S1P3 for use in ligand and 35S-GTPγS binding studies. […] Receptor binding assay: [33P]sphingosine 1-phosphate (3000 Ci/mmol; American Radiolabeled Chemicals, Inc.) was added to test compounds in 20% DMSO by competition. […] Binding was performed for 60 min at RT on a shaker and bound radioactivity was measured on a PerkinElmer 1450 MicroBeta counter. […]
Where a name gives a salt, the structure may show the parent alone.
READOUT: IC50 (M)
# unit: M | format: bare number

In: # IC50 lookup, item COCc1cc(-c2nc(-c3ccc(N)nc3)no2)ccc1-c1ccccc1F
Out: 3.62e-06

In: Request: CCOc1cc(-c2nc(-c3cnc(NCCC(=O)O)c(Cl)c3)no2)ccc1-c1ccccc1C [Example 65, hydrochloride salt]
Out: 1.6e-06

In: Another compound to look at: COCc1cc(-c2nc(-c3cnc(N)c(Cl)c3)no2)ccc1-c1ccccc1F
Out: 7.21e-06

In: And the next one, COCc1cc(-c2nc(-c3cnc(NCCCC(=O)O)c(C)c3)no2)ccc1-c1ccccc1F [Example 55, hydrochloride salt] ?
Out: 2.82e-06

In: Next up: CC1CCCCN1c1ccc(-c2nc(-c3ccnc(CN(C)CCC(=O)O)c3)no2)cc1C(F)(F)F (stereo not shown)
Out: 1.41e-07

In: Item: COCc1cc(-c2nc(-c3cnc(N)c(C)c3)no2)ccc1-c1ccccc1C [Example 18, hydrochloride salt]
Out: 2.21e-05

In: Likewise for COCc1cc(-c2nc(-c3cnc(NCCC(=O)O)c(Cl)c3)no2)ccc1-c1ccccc1F [Example 48, hydrochloride salt] ?
Out: 1.37e-06

In: Okay, and COCc1cc(-c2nc(-c3cnc(Cl)c(F)c3)no2)ccc1-c1ccccc1C ?
Out: 6.53e-06

In: Param item: COCc1cc(-c2nc(-c3cnc(N)c(Cl)c3)no2)ccc1-c1ccccc1Cl
Out: 2e-05

In: Same lookup for O=C(O)CCNc1ncc(-c2noc(-c3ccc(-c4ccccc4F)c(C(F)(F)F)c3)n2)cc1Cl , please.
Out: 3.87e-06

In: Next record, please: COCc1cc(-c2nc(-c3ccc(NCC(O)CO)nc3)no2)ccc1-c1ccccc1C (stereo not shown) [Example 45, hydrochloride salt]
Out: 9.31e-06

In: Query COCc1cc(-c2nc(-c3ccc(N)nc3)no2)ccc1-c1ccccc1C [Example 4, hydrochloride salt] next
Out: 6.07e-06

In: Same again, this time with CC1CCCCN1c1ccc(-c2nc(-c3ccnc(CN(C)CC(=O)O)c3)no2)cc1C(F)(F)F (stereo not shown)
Out: 7.44e-07

In: // next record COCc1cc(-c2nc(-c3cnc(N)c(Cl)c3)no2)ccc1-c1ccccc1C
Out: 1.65e-05

In: Now consider COCc1cc(-c2nc(-c3ccc(NCCCCO)nc3)no2)ccc1-c1ccccc1C [Example 51, hydrochloride salt] and answer again.
Out: 1.79e-05

In: Thanks! And COCc1cc(-c2nc(-c3ccc(CN(C)CC(=O)O)nc3)no2)ccc1-c1ccccc1C ?
Out: 3.04e-06

----------
- TESTED_SYSTEM: S1P1 (Homo sapiens, UniProt P21453)
- Sequence (P21453 whole entry, species assumed): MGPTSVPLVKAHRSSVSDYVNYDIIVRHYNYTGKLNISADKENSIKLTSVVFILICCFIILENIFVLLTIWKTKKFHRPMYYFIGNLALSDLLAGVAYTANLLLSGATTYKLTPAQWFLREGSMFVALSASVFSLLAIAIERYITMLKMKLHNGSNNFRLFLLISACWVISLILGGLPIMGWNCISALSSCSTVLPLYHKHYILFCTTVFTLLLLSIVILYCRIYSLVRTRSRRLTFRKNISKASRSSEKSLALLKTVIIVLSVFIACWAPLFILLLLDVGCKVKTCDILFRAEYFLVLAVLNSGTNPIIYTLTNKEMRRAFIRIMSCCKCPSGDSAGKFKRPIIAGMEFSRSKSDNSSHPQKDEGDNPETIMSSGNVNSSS
- ASSAY_INFO: Receptor binding assay, [33P]sphingosine 1-phosphate competition, S1P1
- PROTOCOL_CONDITIONS: 96 well-plate; read-out: S1P1 binding IC50 (M) (96 well-plate)
Counter-ions that a name gives are not always drawn.
I'd be grateful if you could share measured IC50 for these entries.
Just the number in M, nothing appended.

In: Test system S1P1 (Homo sapiens, UniProt P21453); read-out IC50; what value for COCc1cc(-c2nc(-c3cnc(NCCCC(=O)O)c(Cl)c3)no2)ccc1-c1ccccc1F [Example 54, hydrochloride salt] ?
Out: 2.01e-09

In: Next molecule: COCc1cc(-c2nc(-c3cnc(NCCO)c(Cl)c3)no2)ccc1-c1ccccc1F [Example 62]
Out: 3.1e-09

In: Next: COCc1cc(-c2nc(-c3cnc(Cl)c(F)c3)no2)ccc1-c1ccccc1C [Example 60]
Out: 2.83e-09

In: Follow-up entry: COCc1cc(-c2nc(-c3cnc(NCCC(=O)O)c(C)c3)no2)ccc1-c1ccccc1F [Example 53, hydrochloride salt]
Out: 6.38e-09

In: Here is the next molecule: CCc1ccccc1-c1ccc(-c2nc(-c3ccc(N)nc3)no2)cc1COC [Example 12, hydrochloride salt]
Out: 8.84e-09

In: Now consider COCc1cc(-c2nc(-c3ccc(CN(C)CC(=O)O)nc3)no2)ccc1-c1ccccc1C [Example 78] and answer again.
Out: 3.01e-09

In: Also COCc1cc(-c2nc(-c3ccnc(CN(C)CC(=O)O)c3)no2)ccc1-c1ccccc1C [Example 68] ?
Out: 1.79e-09

In: Similarly, COCc1cc(-c2nc(-c3ccc(NCC(C)O)nc3)no2)ccc1-c1ccccc1C (stereo not shown) [Example 44] ?
Out: 4.22e-09

In: What about COCc1cc(-c2nc(-c3cnc(NCCC(=O)O)c(Cl)c3)no2)ccc1-c1ccccc1C [Example 37, hydrochloride salt] ?
Out: 1.07e-09

In: # iterate: COCc1cc(-c2nc(-c3ccc(NCC(O)CO)nc3)no2)ccc1-c1ccccc1C (stereo not shown) [Example 45, hydrochloride salt]
Out: 2.88e-09

In: Okay, and COCc1cc(-c2nc(-c3ccc(N)nc3)no2)ccc1N1CCCC1C (stereo not shown) [Example 33] ?
Out: 5.37e-08

In: Now give it for COCc1cc(-c2nc(-c3ccc(NCCCO)nc3)no2)ccc1-c1ccccc1C [Example 41] too.
Out: 6.72e-09

In: What do you have for COCc1cc(-c2nc(-c3ccnc(CNCC(=O)O)c3)no2)ccc1-c1ccccc1C [Example 69] ?
Out: 2.6e-09

In: What about CC1CCCCN1c1ccc(-c2nc(-c3ccnc(CN(C)CC(=O)O)c3)no2)cc1C(F)(F)F (stereo not shown) [Example 66] ?
Out: 3.3e-09

In: Then CCc1ccccc1-c1ccc(-c2nc(-c3cnc(N)c(Cl)c3)no2)cc1COC [Example 43] ?
Out: 2.44e-09

In: Subsequent entry: COCc1cc(-c2nc(-c3cnc(N)c(Cl)c3)no2)ccc1-c1ccccc1C [Example 14]
Out: 1.89e-08

----------
- TESTED_SYSTEM: S1P1 (Homo sapiens, UniProt P21453)
- ASSAY_INFO: Receptor binding assay, [33P]sphingosine 1-phosphate competition, S1P1
- PROTOCOL_CONDITIONS: 96 well-plate; read-out: S1P1 binding IC50 (M) (96 well-plate)
- Experimental: Membranes Preparation: Membranes were prepared from CHO cells expressing S1P1 or S1P3 for use in ligand and 35S-GTPγS binding studies. […] Receptor binding assay: [33P]sphingosine 1-phosphate (3000 Ci/mmol; American Radiolabeled Chemicals, Inc.) was added to test compounds in 20% DMSO by competition. […] Binding was performed for 60 min at RT on a shaker and bound radioactivity was measured on a PerkinElmer 1450 MicroBeta counter. […]
Counter-ions that a name gives are not always drawn.
READOUT: IC50 (M)
Kindly answer with a numeric value in M, unit omitted.

In: // query IC50 value for entry COCc1cc(-c2nc(-c3ccc(N)nc3)no2)ccc1N1CCCCC1C (stereo not shown)
Out: 4.29e-09

In: Would you mind doing COCc1cc(-c2nc(-c3ccnc(NCCC(=O)O)c3)no2)ccc1-c1ccccc1C [Example 7, hydrochloride salt] as well?
Out: 9.09e-09

In: Field entry: COCc1cc(-c2nc(-c3ccc(N)nc3)no2)ccc1-c1ccccc1F
Out: 1.65e-09

In: Same for Cc1ccccc1-c1ccc(-c2nc(-c3cnc(NCCC(=O)O)c(C)c3)no2)cc1C(F)(F)F [Example 59, hydrochloride salt]
Out: 1.04e-08

In: What about COCc1cc(-c2nc(-c3cnc(NCCCC(=O)O)c(C)c3)no2)ccc1-c1ccccc1F [Example 55, hydrochloride salt] ?
Out: 6.02e-09

In: Param item: COCc1cc(-c2nc(-c3cnc(NCCC(=O)O)c(C)c3)no2)ccc1-c1ccccc1C [Example 58, hydrochloride salt]
Out: 2.94e-09

In: Same read-out for Cc1ccccc1-c1ccc(-c2nc(-c3cnc(NCCC(=O)O)c(Cl)c3)no2)cc1C(F)(F)F [Example 61, hydrochloride salt] ?
Out: 5.28e-09

----------
- TESTED_SYSTEM: S1P1 (Homo sapiens, UniProt P21453)
- ASSAY_INFO: Receptor binding assay, [33P]sphingosine 1-phosphate competition, S1P1
- PROTOCOL_CONDITIONS: 96 well-plate; read-out: S1P1 binding IC50 (M) (96 well-plate)
Structures can show the parent of a compound that is named as a salt.
READOUT: IC50 (M)
Quick reminder: number only, in M, skip the unit.

In: Any idea what IC50 was measured for COCc1cc(-c2nc(-c3ccc(O)nc3)no2)ccc1N1CCCCC1C (stereo not drawn) ?
Out: 1.3e-09

In: Follow-up entry: COCc1cc(-c2nc(-c3ccc(NCCCCO)nc3)no2)ccc1-c1ccccc1C [Example 51, hydrochloride salt]
Out: 1.05e-08

In: Cool, now COCc1cc(-c2nc(-c3ccnc(N)c3)no2)ccc1-c1ccccc1C [Example 15, hydrochloride salt]
Out: 1.04e-08

In: COCc1cc(-c2nc(-c3ccc(NCCC(=O)O)nc3)no2)ccc1-c1ccccc1C [Example 2, hydrochloride salt] ?
Out: 4.83e-09

In: Also, COCCNc1ncc(-c2noc(-c3ccc(-c4ccccc4C)c(COC)c3)n2)cc1Cl please.
Out: 5.26e-09

In: // same read-out, input: COCc1cc(-c2nc(-c3cnc(N)c(Cl)c3)no2)ccc1-c1ccccc1F
Out: 3.31e-09

In: Repeat with COCc1cc(-c2nc(-c3cnc(NCCC(=O)O)c(Cl)c3)no2)ccc1-c1ccccc1F [Example 48, hydrochloride salt]
Out: 3.15e-09

In: Repeat for the following molecule: COCc1cc(-c2nc(-c3cnc(N[C@H]4CCC[C@H]4C(=O)O)c(Cl)c3)no2)ccc1-c1ccccc1C (relative stereo)
Out: 1.35e-08

In: Try this molecule next: CCC1CCCCN1c1ccc(-c2nc(-c3ccc(N)nc3)no2)cc1COC (stereo not drawn)
Out: 5.7e-09

In: Lookup COCc1cc(-c2nc(-c3cnc(NCCCC(=O)O)c(C)c3)no2)ccc1-c1ccccc1C [Example 57, hydrochloride salt]
Out: 5.6e-09

In: // next record COCc1cc(-c2nc(-c3cnc(NCCCC(=O)O)c(Cl)c3)no2)ccc1-c1ccccc1C [Example 56, hydrochloride salt]
Out: 1.71e-09

In: Check COCc1cc(-c2nc(-c3ccc(N)nc3)no2)ccc1-c1ccccc1Cl too.
Out: 1.39e-09

In: Try the molecule CC1CCCCN1c1ccc(-c2nc(-c3ccnc(CN(C)CCC(=O)O)c3)no2)cc1C(F)(F)F (stereo not drawn)
Out: 1.2e-09

In: Check COCc1cc(-c2nc(-c3ccc(N)nc3)no2)ccc1-c1ccccc1C [Example 4, hydrochloride salt] too.
Out: 1.75e-09

In: Can you check COCc1cc(-c2nc(-c3cnc(N)c(Cl)c3)no2)ccc1-c1ccccc1Cl next?
Out: 6.02e-09
